- TARGET_OR_TEST_SYSTEM: TEAD2 (Homo sapiens (Human), UniProt Q15562)
- Sequence (Q15562 whole entry): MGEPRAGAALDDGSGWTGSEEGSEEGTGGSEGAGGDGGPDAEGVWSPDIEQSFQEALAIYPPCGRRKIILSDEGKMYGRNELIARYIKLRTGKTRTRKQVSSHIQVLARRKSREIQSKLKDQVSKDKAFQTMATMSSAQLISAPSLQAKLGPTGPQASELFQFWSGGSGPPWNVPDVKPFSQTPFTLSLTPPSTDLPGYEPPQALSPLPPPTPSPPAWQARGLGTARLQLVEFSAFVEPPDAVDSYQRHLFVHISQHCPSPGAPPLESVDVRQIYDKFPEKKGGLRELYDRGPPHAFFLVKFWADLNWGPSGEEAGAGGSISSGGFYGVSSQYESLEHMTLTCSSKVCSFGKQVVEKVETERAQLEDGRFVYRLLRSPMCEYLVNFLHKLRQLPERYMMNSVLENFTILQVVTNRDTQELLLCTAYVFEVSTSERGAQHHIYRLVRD
- ASSAY_INFO: CMP assay (CPM fluorescence detection of free CoA)
- Format: biochemical
- ASSAY_SETUP: Table 2; read-out: IC50 μM (CMP assay)
Would you mind telling me the reported IC50 of each entry?
Report as a plain number; the unit µM is understood.

stdin: Send back TEAD2 (Homo sapiens (Human), UniProt Q15562) IC50 of O=C(O)c1cccnc1Nc1ccc(Oc2ccc(C34CC5CC(CC(C5)C3)C4)cc2Cl)cc1 [Compound 252] only.
stdout: 0.053

stdin: Send back TEAD2 (Homo sapiens (Human), UniProt Q15562) IC50 of O=C(O)c1cccc(Nc2cc(Nc3ccc(C45CC6CC(CC(C6)C4)C5)cc3Cl)cc(C(F)(F)F)c2)n1 [Compound 119] only.
stdout: 0.106

stdin: Send back TEAD2 (Homo sapiens (Human), UniProt Q15562) IC50 of O=C(O)c1cccnc1Nc1cnn(Cc2ccc(C34CC5CC(CC(C5)C3)C4)cc2Cl)c1 [Compound 112] only.
stdout: 0.268

stdin: Send back TEAD2 (Homo sapiens (Human), UniProt Q15562) IC50 of O=C(O)c1cccc(Nc2ccc(Nc3ccc(C45CC6CC(CC(C6)C4)C5)cc3Cl)cc2)n1 [Compound 90] only.
stdout: 0.446
